Where do the numbers come from? From ChEMBL document CHEMBL1697781.

tested on: Hepatotoxicity; assay: FDA HLAED, alkaline phosphatase increase; conditions: human
value_kind: Alkaline Phosphatase Increase - Number of Reports

Here is how some compounds turned out for Alkaline Phosphatase Increase - Number of Reports.
CCOC(=O)Nc1ccc2c(c1)N(C(=O)CCN1CCOCC1)c1ccccc1S2
< 4
CCOC(=O)c1ccc(C#Cc2ccc3c(c2)C(C)(C)CCS3)nc1
< 4
CN(C/C=C/c1ccccc1)Cc1cccc2ccccc12
< 4
Cc1cccc(Nc2ccncc2S(=O)(=O)NC(=O)NC(C)C)c1 [TORSEMIDE]
< 4
CO[C@@]1(NC(=O)C2SC(=C(C(N)=O)C(=O)O)S2)C(=O)N2C(C(=O)O)=C(CSc3nnnn3C)CS[C@@H]21 (some centres not stated)
< 4

Here Nc1cc(Cl)c(N=C2NCCN2)c(Cl)c1 was tested on Hepatotoxicity, and its Alkaline Phosphatase Increase - Number of Reports came to < 4

Here CC1=C(CC(=O)O)c2cc(F)ccc2/C1=C\c1ccc([S+](C)[O-])cc1 (configuration not stated) was tested on Hepatotoxicity, and its Alkaline Phosphatase Increase - Number of Reports came to < 4

Here CC(C(=O)O)c1ccc(-c2ccccc2)c(F)c1 (configuration not stated) was tested on Hepatotoxicity, and its Alkaline Phosphatase Increase - Number of Reports came to >= 4

Here CC(C)c1cccc(C(C)C)c1O was tested on Hepatotoxicity, and its Alkaline Phosphatase Increase - Number of Reports came to >= 4

Here CCCN1CCCC[C@H]1C(=O)Nc1c(C)cccc1C was tested on Hepatotoxicity, and its Alkaline Phosphatase Increase - Number of Reports came to < 4

Here Nc1ccn([C@@H]2O[C@H](CO)[C@@H](O)[C@@H]2O)c(=O)n1 was tested on Hepatotoxicity, and its Alkaline Phosphatase Increase - Number of Reports came to >= 4

Here CC(S)C(=O)NCC(=O)O (configuration not stated) was tested on Hepatotoxicity, and its Alkaline Phosphatase Increase - Number of Reports came to < 4

----------
test system: Hepatotoxicity; test: FDA HLAED, alkaline phosphatase increase; details: human
value_kind: Alkaline Phosphatase Increase - Number of Reports

Here is how some molecules turned out for Alkaline Phosphatase Increase - Number of Reports.
CCCNCC(O)COc1ccccc1C(=O)CCc1ccccc1 (stereo unspecified) [PROPAFENONE]
>= 4
C/C(=C\C(=O)OCCCCCCCCC(=O)O)C[C@@H]1OC[C@H](C[C@@H]2O[C@H]2[C@@H](C)[C@H](C)O)[C@@H](O)[C@H]1O [MUPIROCIN]
< 4
CC(C)(C)NC[C@H](O)COc1nsnc1N1CCOCC1 [TIMOLOL]
< 4
COC1=CC(=O)C[C@@H](C)[C@]12Oc1c(Cl)c(OC)cc(OC)c1C2=O [GRISEOFULVIN]
>= 4
CC(NCCc1ccc(O)cc1)C(O)c1ccc(O)cc1 (stereo unspecified) [RITODRINE]
< 4

Here CCCCc1oc2ccccc2c1C(=O)c1cc(I)c(OCCN(CC)CC)c(I)c1 [AMIODARONE] was tested on Hepatotoxicity, and its Alkaline Phosphatase Increase - Number of Reports came to < 4

Here Cc1cc(C2CCCCC2)n(O)c(=O)c1 [CICLOPIROX] was tested on Hepatotoxicity, and its Alkaline Phosphatase Increase - Number of Reports came to < 4

----------
tested on: Hepatotoxicity; test: FDA HLAED, serum glutamic oxaloacetic transaminase (SGOT) increase; details: human
value_kind: SGOT Increase - Number of Reports

COc1ccc(Cl)cc1C(=O)NCCc1ccc(S(=O)(=O)NC(=O)NC2CCCCC2)cc1 [GLYBURIDE]
>= 4
O=C(O)[C@@H](S)[C@@H](S)C(=O)O
>= 4
CCOC(=O)[C@H](CCc1ccccc1)N[C@H]1CCc2ccccc2N(CC(=O)O)C1=O
< 4
CC(=O)N1CCN(c2ccc(OCC3COC(Cn4ccnc4)(c4ccc(Cl)cc4Cl)O3)cc2)CC1 (stereo not given)
>= 4

Here is another compound to look at.
The compound listed as CCCCc1nc(Cl)c(CO)n1Cc1ccc(-c2ccccc2-c2nn[nH]n2)cc1 has a reported SGOT Increase - Number of Reports of >= 4

----------
Form field: GGT Increase - Index Value (one value per entry).
test system: Hepatotoxicity; assay: FDA HLAED, gamma-glutamyl transferase (GGT) increase; conditions: human
When you answer, write just the number.

COc1c(C)c2c(c(O)c1C/C=C(\C)CCC(=O)O)C(=O)OC2
3.8
CNCC(O)c1ccc(OC(=O)C(C)(C)C)c(OC(=O)C(C)(C)C)c1 (stereo not drawn)
0

Here is another molecule to look at.
Here CCC1=C[C@@H]2CN(C1)Cc1c([nH]c3ccccc13)[C@@](C(=O)OC)(c1cc3c(cc1OC)N(C)[C@H]1[C@@](O)(C(=O)OC)[C@H](OC(C)=O)[C@]4(CC)C=CCN5CC[C@]31[C@@H]54)C2 was tested on Hepatotoxicity, and its GGT Increase - Index Value came to 0.9

----------
Form field: SGOT Increase - Index Value (one value per entry).
tested on: Hepatotoxicity; assay: FDA HLAED, serum glutamic oxaloacetic transaminase (SGOT) increase; conditions: human
When you answer, write just the number.

C[C@H]1C[C@H]2[C@@H]3C[C@H](F)C4=CC(=O)C=C[C@]4(C)[C@@]3(F)[C@@H](O)C[C@]2(C)[C@@]1(O)C(=O)CCl
0

The molecule listed as CCOC(=O)/C=C(C)/C=C/C=C(C)/C=C/c1c(C)cc(OC)c(C)c1C [ETRETINATE] has a reported SGOT Increase - Index Value of 5.3

The molecule listed as Cc1cn([C@H]2C=C[C@@H](CO)O2)c(=O)[nH]c1=O has a reported SGOT Increase - Index Value of 9.1

The molecule listed as Clc1ccc(CO/N=C(\Cn2ccnc2)c2ccc(Cl)cc2Cl)c(Cl)c1 has a reported SGOT Increase - Index Value of 0

The molecule listed as CO/N=C(/C(=O)N[C@@H]1C(=O)N2C(C(=O)OC(C)OC(=O)C(C)(C)OC)=C(COC(N)=O)CS[C@H]12)c1ccco1 (stereo partly specified) has a reported SGOT Increase - Index Value of 0

----------
system: Hepatotoxicity; assay: FDA HLAED, serum glutamic pyruvic transaminase (SGPT) increase; details: human
value_kind: SGPT Increase - Activity Score

Here is how some molecules turned out for SGPT Increase - Activity Score.
Cn1cc([S+](C)[O-])c(=O)c2ccc(F)cc21 (centres undefined)
Inactive
Nc1ccn([C@@H]2O[C@H](CO)[C@@H](O)C2(F)F)c(=O)n1
Inactive
O=c1n(CCCN2CCN(c3cccc(Cl)c3)CC2)nc2ccccn12
Inactive
COc1ccc2cc(CCC(C)=O)ccc2c1
Inactive
CC(=O)NO [ACETOHYDROXAMIC ACID]
Inactive
C[N+](C)(C)CCO.Cn1c(=O)c2[n-]cnc2n(C)c1=O
Inactive

The molecule listed as Nc1ncnc2c1ncn2[C@@H]1O[C@H](CO)[C@@H](O)[C@H]1O has a reported SGPT Increase - Activity Score of Inactive

The molecule listed as CC(C(=O)O)c1cccc(C(=O)c2ccccc2)c1 (centres undefined) has a reported SGPT Increase - Activity Score of Inactive

The molecule listed as Cn1cnc([N+](=O)[O-])c1Sc1ncnc2nc[nH]c12 has a reported SGPT Increase - Activity Score of Active

The molecule listed as CC(C)c1c(C(=O)Nc2ccccc2)c(-c2ccccc2)c(-c2ccc(F)cc2)n1CC[C@@H](O)C[C@@H](O)CC(=O)O has a reported SGPT Increase - Activity Score of Active

The molecule listed as C[C@H]1COc2c(N3CCN(C)CC3)c(F)cc3c(=O)c(C(=O)O)cn1c23.C[C@H]1COc2c(N3CCN(C)CC3)c(F)cc3c(=O)c(C(=O)O)cn1c23.O has a reported SGPT Increase - Activity Score of Inactive

The molecule listed as CCC1=C[C@@H]2CN(C1)Cc1c([nH]c3ccccc13)[C@@](C(=O)OC)(c1cc3c(cc1OC)N(C)[C@H]1[C@@](O)(C(=O)OC)[C@H](OC(C)=O)[C@]4(CC)C=CCN5CC[C@]31[C@@H]54)C2 has a reported SGPT Increase - Activity Score of Inactive

The molecule listed as Nc1cc(Cl)c(N=C2NCCN2)c(Cl)c1 has a reported SGPT Increase - Activity Score of Inactive

The molecule listed as C[C@]12CC[C@H]3[C@@H](CCC4=CC(=O)CC[C@@]43C)[C@@H]1CC[C@@H]2OC(=O)CCC1CCCC1 [TESTOSTERONE CYPIONATE] has a reported SGPT Increase - Activity Score of Inactive

----------
tested on: Hepatotoxicity; assay: FDA HLAED, serum glutamic pyruvic transaminase (SGPT) increase; conditions: human
value_kind: SGPT Increase - Number of Reports

Here is how some molecules turned out for SGPT Increase - Number of Reports.
CCOC(=O)c1ncn2c1CN(C)C(=O)c1cc(F)ccc1-2
< 4
CC(C)(C)c1ccc(C(O)CCCN2CCC(C(O)(c3ccccc3)c3ccccc3)CC2)cc1 (centres undefined)
>= 4
COc1ccc(-c2ccc3cc(C(=O)O)ccc3c2)cc1C12CC3CC(CC(C3)C1)C2
< 4
CC(C)(C#N)c1cc(Cn2cncn2)cc(C(C)(C)C#N)c1
>= 4

The molecule listed as Cc1nnc2n1-c1ccc(Cl)cc1C(c1ccccc1Cl)=NC2 has a reported SGPT Increase - Number of Reports of < 4

The molecule listed as O=C(O)C1=C(CSc2nnnn2CS(=O)(=O)O)CS[C@@H]2[C@H](NC(=O)[C@H](O)c3ccccc3)C(=O)N12 has a reported SGPT Increase - Number of Reports of < 4

The molecule listed as C[C@@H](O)[C@H]1C(=O)N2C(C(=O)O)=C(S[C@@H]3CN[C@H](C(=O)N(C)C)C3)[C@H](C)[C@H]12 has a reported SGPT Increase - Number of Reports of < 4

The molecule listed as CC1(C)O[C@@H]2[C@@H](CO[C@@]3(COS(N)(=O)=O)OC(C)(C)O[C@@H]23)O1 [TOPIRAMATE] has a reported SGPT Increase - Number of Reports of < 4

The molecule listed as CCCCCc1cc(O)c2c(c1)OC(C)(C)[C@@H]1CCC(C)=C[C@@H]21 has a reported SGPT Increase - Number of Reports of < 4
